- Tested System: human PPAR α (Homo sapiens)
- Construct: PPARα: aa 167-C-terminus; PPARγ: aa 165-C-terminus
- Sequence (Q07869 167-468 limits assumed): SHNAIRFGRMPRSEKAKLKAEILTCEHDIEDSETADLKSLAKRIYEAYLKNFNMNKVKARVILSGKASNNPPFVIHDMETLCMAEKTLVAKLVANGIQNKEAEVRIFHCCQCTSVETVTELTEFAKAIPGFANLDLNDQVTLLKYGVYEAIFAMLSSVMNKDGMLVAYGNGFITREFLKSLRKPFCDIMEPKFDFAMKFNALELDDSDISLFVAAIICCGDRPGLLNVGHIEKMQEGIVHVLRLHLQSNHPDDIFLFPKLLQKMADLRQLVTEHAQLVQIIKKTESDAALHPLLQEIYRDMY
- Assay Method Text: In vitro PPAR alpha transactivation assay (GAL4-DBD-PPAR-LBD luciferase reporter in HEK293 cells)
- Condition Summary: HEK293 cells, 24 h with compound, five concentrations 0.01 to 30 μM, means of at least three experiments; read-out: In vitro activation PPAR α EC50
Collected pEC50 values appear next to each entry.
Scale: negative log10 of molar concentration, which is what pEC50 denotes.

Solved cases (3 shown):
In [3]: df
Out[3]:
                                   compound  assay_value
0  CCO[C@@H](Cc1ccc(OC/C=C(\C)C#Cc2cccc(C(F)(F)F)c2)cc1)C(=O)O         7.30
1  CCOC(Cc1ccc(OCC=C(C)C#Cc2cccc3ccccc23)cc1)C(=O)O (stereo in doubt)         6.80
2  CCO[C@@H](Cc1ccc(OC/C=C(\C)C#Cc2cc(Cl)cc(Cl)c2)cc1)C(=O)O         7.22

Read the next record carefully.
Please look up its pEC50: `CCO[C@@H](Cc1ccc(OC/C=C/C#Cc2cc(Cl)cc(Cl)c2)cc1)C(=O)O`
7.40
